SUBJECT_OF_TEST: Serine/threonine-protein kinase PLK1 (Homo sapiens, UniProt P53350)
Sequence (P53350 whole entry, the tested form may be a part): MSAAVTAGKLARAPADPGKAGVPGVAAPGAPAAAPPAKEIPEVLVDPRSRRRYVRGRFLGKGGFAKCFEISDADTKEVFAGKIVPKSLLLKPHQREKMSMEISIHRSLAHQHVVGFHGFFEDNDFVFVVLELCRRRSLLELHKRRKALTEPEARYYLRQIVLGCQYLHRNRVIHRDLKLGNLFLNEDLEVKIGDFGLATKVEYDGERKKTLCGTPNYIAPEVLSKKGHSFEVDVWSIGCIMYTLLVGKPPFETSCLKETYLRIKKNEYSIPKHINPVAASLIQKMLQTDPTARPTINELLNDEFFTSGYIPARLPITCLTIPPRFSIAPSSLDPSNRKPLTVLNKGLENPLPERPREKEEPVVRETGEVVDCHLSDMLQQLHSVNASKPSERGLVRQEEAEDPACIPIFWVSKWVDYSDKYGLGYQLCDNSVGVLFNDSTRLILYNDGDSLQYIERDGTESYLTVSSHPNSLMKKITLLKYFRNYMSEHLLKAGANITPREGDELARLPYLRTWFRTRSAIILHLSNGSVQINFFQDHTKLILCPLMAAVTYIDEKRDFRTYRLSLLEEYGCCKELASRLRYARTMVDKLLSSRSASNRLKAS
EXPERIMENT: Inhibition of human PLK1 kinase domain at 10 uM using 5-TAMRA-RGSFNDTLDFD-NH2 substrate and ATP incubated for 90 mins by fluorescent polarization assay
Overview of recorded inhibition for various molecules
Numeric answer only, unit % assumed.

Recorded inhibition, per entry:
{"columns": ["COMPOUND_STRUCTURE_STRING", "SUBJECT_OF_TEST", "NUMERIC_VALUE"],
 "data": [
  ["COc1cc(F)ccc1-c1ccnc(Nc2ccc(S(=O)(=O)Nc3onc(C)c3C)cc2)n1", "Serine/threonine-protein kinase PLK1 (Homo sapiens, UniProt P53350)", 35],
  ["Cc1noc(NS(=O)(=O)c2ccc(Nc3nccc(-c4ccc(F)cc4F)n3)cc2)c1C", "Serine/threonine-protein kinase PLK1 (Homo sapiens, UniProt P53350)", 55],
  ["Cc1noc(NS(=O)(=O)c2ccc(Nc3nccc(-c4ccc(F)cc4OC(C)C)n3)cc2)c1C", "Serine/threonine-protein kinase PLK1 (Homo sapiens, UniProt P53350)", 13]
]}

Query: Fill in: inhibition of COc1ccc(F)c(F)c1-c1ccnc(Nc2ccc(S(=O)(=O)Nc3onc(C)c3C)cc2)n1 is ___
Result: 75

Query: Fill in: inhibition of COc1cc(F)c(F)cc1-c1ccnc(Nc2ccc(S(=O)(=O)Nc3onc(C)c3C)cc2)n1 is ___
Result: 37

----------
SUBJECT_OF_TEST: CDK9/cyclin T1 (Homo sapiens, UniProt P50750)
Sequence (O60563 whole entry, the tested form may be a part): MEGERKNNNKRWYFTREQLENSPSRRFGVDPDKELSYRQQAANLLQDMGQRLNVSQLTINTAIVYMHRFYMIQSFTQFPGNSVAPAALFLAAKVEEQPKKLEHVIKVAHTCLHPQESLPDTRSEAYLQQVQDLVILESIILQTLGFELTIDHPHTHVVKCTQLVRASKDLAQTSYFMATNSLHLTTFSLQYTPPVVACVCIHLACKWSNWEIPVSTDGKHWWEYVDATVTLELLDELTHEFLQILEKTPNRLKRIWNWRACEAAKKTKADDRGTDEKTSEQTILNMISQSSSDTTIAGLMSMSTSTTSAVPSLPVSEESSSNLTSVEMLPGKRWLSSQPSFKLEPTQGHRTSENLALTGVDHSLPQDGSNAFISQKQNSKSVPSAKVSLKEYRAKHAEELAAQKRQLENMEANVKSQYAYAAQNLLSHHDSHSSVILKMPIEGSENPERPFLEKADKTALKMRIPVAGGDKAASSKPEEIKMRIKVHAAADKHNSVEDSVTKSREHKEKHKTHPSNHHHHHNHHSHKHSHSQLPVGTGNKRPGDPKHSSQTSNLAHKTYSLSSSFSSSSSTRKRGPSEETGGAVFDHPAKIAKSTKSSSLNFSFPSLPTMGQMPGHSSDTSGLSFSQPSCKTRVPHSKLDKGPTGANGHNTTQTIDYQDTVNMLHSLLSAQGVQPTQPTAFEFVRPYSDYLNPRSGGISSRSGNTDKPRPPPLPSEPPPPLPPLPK
Sequence (P50750 whole entry, the tested form may be a part): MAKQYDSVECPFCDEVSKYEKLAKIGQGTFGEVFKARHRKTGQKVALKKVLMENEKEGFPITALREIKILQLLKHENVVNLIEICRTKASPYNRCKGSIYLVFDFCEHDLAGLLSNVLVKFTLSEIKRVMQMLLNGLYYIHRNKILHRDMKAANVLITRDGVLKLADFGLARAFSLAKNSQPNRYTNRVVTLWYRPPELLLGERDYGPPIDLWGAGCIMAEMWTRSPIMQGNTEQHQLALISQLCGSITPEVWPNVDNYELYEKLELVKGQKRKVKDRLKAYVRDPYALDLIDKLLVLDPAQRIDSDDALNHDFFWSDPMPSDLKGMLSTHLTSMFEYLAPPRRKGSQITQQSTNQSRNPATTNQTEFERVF
EXPERIMENT: Inhibition of N-terminal GST-HIS6 fusion protein tagged human full length CDK9 (M1 to F372 residues)/N-terminal GST-HIS6 fusion protein tagged human Cyclin-T1 (M1 to K726 residues) expressed in Sf9 cells at 10 uM using TAMRA-Rbtide substrate and ATP incubated for 1 hr by fluorescent polarization assay
Could you mark each record T if its IC50 falls strictly under 4 nM, and F if it equals or exceeds it?

Solved entries (count: 3):
{"columns": ["COMPOUND_STRUCTURE_STRING", "DISCRETE_LABEL"],
 "data": [
  ["Cc1noc(NS(=O)(=O)c2ccc(Nc3nccc(-c4ccc(F)cc4OC(C)C)n3)cc2)c1C", "F"],
  ["COc1ccccc1-c1ccnc(Nc2ccc(S(=O)(=O)Nc3nccs3)cc2)n1", "F"],
  ["COc1ccccc1-c1ccnc(Nc2cccc(Cn3cnc4ccccc43)c2)n1", "T"]
]}

Query: Bench note: check whether COc1ccc(-c2ccnc(Nc3ccc(S(=O)(=O)Nc4nnc(C)s4)cc3)n2)c(OC)c1 shows IC50 below 4 nM
Result: F

Query: Bench note: check whether COc1cc(F)c(F)cc1-c1ccnc(Nc2ccc(S(=O)(=O)Nc3onc(C)c3C)cc2)n1 shows IC50 below 4 nM
Result: F

Query: Bench note: check whether CCOc1cc(F)ccc1-c1ccnc(Nc2ccc(S(=O)(=O)Nc3nnc(C)s3)cc2)n1 shows IC50 below 4 nM
Result: T

Query: Bench note: check whether CSc1cc(F)ccc1-c1ccnc(Nc2ccc(S(=O)(=O)Nc3onc(C)c3C)cc2)n1 shows IC50 below 4 nM
Result: F

----------
SUBJECT_OF_TEST: CDK2/Cyclin A2 (Homo sapiens) (UniProt P24941+P20248)
EXPERIMENT: Inhibition of human full length CDK2 (M1 to L298 residues)/human full length Cyclin-A2 (M1 to L432 residues) expressed in Sf9 cells at 1 uM using TAMRA-histone H1-derived peptide substrate and ATP incubated for 1 hr by fluorescent polarization assay
Classify as follows. Reported inhibition greater than or equal to 40%: Satisfied. Reported inhibition below: Not satisfied.

Solved entries (count: 5):
{"columns": ["COMPOUND_STRUCTURE_STRING", "DISCRETE_LABEL"],
 "data": [
  ["COc1cccc(F)c1-c1ccnc(Nc2ccc(S(=O)(=O)Nc3nnc(C)s3)cc2)n1", "Not satisfied"],
  ["COc1ccccc1-c1ccnc(Nc2cccc(Cn3cnc4ccccc43)c2)n1", "Not satisfied"],
  ["COc1ccc(F)c(F)c1-c1ccnc(Nc2ccc(S(=O)(=O)Nc3nnc(C)s3)cc2)n1", "Satisfied"],
  ["COc1cccc(F)c1-c1ccnc(Nc2ccc(S(=O)(=O)Nc3nccs3)cc2)n1", "Satisfied"],
  ["COc1cccc(F)c1-c1ccnc(Nc2cccc(Cn3cnc4ccccc43)c2)n1", "Satisfied"]
]}

Query: Item CCOc1cccc(F)c1-c1ccnc(Nc2ccc(S(=O)(=O)Nc3onc(C)c3C)cc2)n1 with inhibition of 40% or above?
Result: Not satisfied

Query: Item COc1cc(F)ccc1-c1ccnc(Nc2ccc(S(=O)(=O)Nc3noc(C)c3C)cc2)n1 with inhibition of 40% or above?
Result: Not satisfied

Query: Item COc1ccc(F)c(F)c1-c1ccnc(Nc2ccc(S(=O)(=O)Nc3onc(C)c3C)cc2)n1 with inhibition of 40% or above?
Result: Satisfied

Query: Item COc1cccc(F)c1-c1ccnc(Nc2ccc(S(=O)(=O)Nc3onc(C)c3C)cc2)n1 with inhibition of 40% or above?
Result: Satisfied

Query: Item COc1cc(F)ccc1-c1ccnc(Nc2ccc(S(=O)(=O)Nc3onc(C)c3C)cc2)n1 with inhibition of 40% or above?
Result: Satisfied

----------
Overview of recorded IC50 for various compounds
Tested on: RPMI-8226
EXPERIMENT: Antiproliferative activity against human RPMI8226 cells assessed as inhibition of cell proliferation incubated for 72 hrs by Cell-titer-Glo luminescent cell viability assay
Format: functional, cell-based
APPLIED_CONDITIONS: RPMI-8226, 72 h
Numeric answer only, unit µM assumed.

Recorded IC50, per entry:
{"columns": ["COMPOUND_STRUCTURE_STRING", "IC50 (µM)"],
 "data": [
  ["COc1cc(F)c(Nc2nccc(-c3c(F)cccc3OC)n2)cc1C(N)=O", 20.5],
  ["COc1ccc(F)c(F)c1-c1ccnc(Nc2ccc(S(=O)(=O)Nc3nnc(C)s3)cc2)n1", 11.7],
  ["COc1cc(F)c(Nc2nccc(-c3ccccc3OC)n2)cc1C(N)=O", 21.5]
]}

Query: Fill in: IC50 of COc1ccccc1-c1ccnc(Nc2ccc(S(=O)(=O)Nc3noc(C)c3C)cc2)n1 is ___
Result: 12.3

Query: Fill in: IC50 of COc1cccc(F)c1-c1ccnc(Nc2ccc(S(=O)(=O)Nc3onc(C)c3C)cc2)n1 is ___
Result: 26.6

Query: Fill in: IC50 of COc1ccccc1-c1ccnc(Nc2ccc(S(=O)(=O)Nc3onc(C)c3C)cc2)n1 is ___
Result: 29.2

Query: Fill in: IC50 of COc1ccccc1-c1ccnc(Nc2ccc(S(=O)(=O)Nc3nccs3)cc2)n1 is ___
Result: 24.7

Query: Fill in: IC50 of COc1cc(F)ccc1-c1ccnc(Nc2ccc(S(=O)(=O)Nc3noc4ccccc34)cc2)n1 is ___
Result: 15.5

Query: Fill in: IC50 of COc1cccc(F)c1-c1ccnc(Nc2cccc(Cn3cnc4ccccc43)c2)n1 is ___
Result: 1.78

Query: Fill in: IC50 of COc1ccccc1-c1ccnc(Nc2cccc(Cn3cnc4ccccc43)c2)n1 is ___
Result: 1.34

----------
SUBJECT_OF_TEST: CDK9/cyclin T1 (Homo sapiens)
EXPERIMENT: Inhibition of N-terminal GST-HIS6 fusion protein tagged human full length CDK9 (M1 to F372 residues)/N-terminal GST-HIS6 fusion protein tagged human Cyclin-T1 (M1 to K726 residues) expressed in Sf9 cells at 10 uM using TAMRA-Rbtide substrate and ATP incubated for 1 hr by fluorescent polarization assay
Each record's IC50 is compared with lowest (below 3 nM), middle (3 nM to below 20 nM), highest (20 nM or more) to give its class.

Solved entries (count: 6):
{"columns": ["COMPOUND_STRUCTURE_STRING", "DISCRETE_LABEL"],
 "data": [
  ["COc1cc(F)c(Nc2nccc(-c3c(F)cccc3OC)n2)cc1C(N)=O", "highest"],
  ["COc1cc(F)ccc1-c1ccnc(Nc2ccc(S(=O)(=O)Nc3noc4ccccc34)cc2)n1", "middle"],
  ["COc1cccc(F)c1-c1ccnc(Nc2ccc(S(=O)(=O)Nc3nccs3)cc2)n1", "lowest"],
  ["CCOc1cccc(F)c1-c1ccnc(Nc2ccc(S(=O)(=O)Nc3onc(C)c3C)cc2)n1", "lowest"],
  ["COc1cc(F)ccc1-c1ccnc(Nc2ccc(-c3c(C)noc3C)cc2)n1", "highest"],
  ["COc1cc(F)c(Nc2nccc(-c3cc(F)c(F)cc3OC)n2)cc1C(N)=O", "highest"]
]}

Query: In plain terms, what class is CCOc1cc(Cl)ccc1-c1ccnc(Nc2ccc(S(=O)(=O)Nc3nnc(C)s3)cc2)n1 ?
Result: middle

Query: In plain terms, what class is CCOc1cc(Cl)ccc1-c1ccnc(Nc2cc(C(N)=O)c(OC)cc2F)n1 ?
Result: highest

Query: In plain terms, what class is COc1cc(F)ccc1-c1ccnc(Nc2ccc(C(=O)O)cc2)n1 ?
Result: highest

Query: In plain terms, what class is COc1cc(F)c(-c2ccnc(Nc3ccc(S(=O)(=O)Nc4onc(C)c4C)cc3)n2)c(F)c1 ?
Result: highest

Query: In plain terms, what class is COc1cccc(F)c1-c1ccnc(Nc2ccc(S(=O)(=O)Nc3onc(C)c3C)cc2)n1 ?
Result: lowest

Query: In plain terms, what class is COc1cc(F)c(Nc2nccc(-c3ccc(F)cc3OC)n2)cc1C(N)=O ?
Result: highest

Query: In plain terms, what class is Cc1noc(NS(=O)(=O)c2ccc(Nc3nccc(-c4cccc(OC(C)C)c4F)n3)cc2)c1C ?
Result: highest

Query: In plain terms, what class is CCOc1cc(Cl)ccc1-c1ccnc(Nc2ccc(S(=O)(=O)Nc3onc(C)c3C)cc2)n1 ?
Result: middle

Query: In plain terms, what class is COc1cccc(Cl)c1-c1ccnc(Nc2ccc(S(=O)(=O)Nc3onc(C)c3C)cc2)n1 ?
Result: highest

Query: In plain terms, what class is COc1cc(Cl)ccc1-c1ccnc(Nc2ccc(S(=O)(=O)Nc3onc(C)c3C)cc2)n1 ?
Result: middle

Query: In plain terms, what class is Cc1noc(NS(=O)(=O)c2ccc(Nc3nccc(-c4ccc(F)cc4Cl)n3)cc2)c1C ?
Result: highest

Query: In plain terms, what class is COc1cccc(F)c1-c1ccnc(Nc2ccc(S(=O)(=O)Nc3nnc(C)s3)cc2)n1 ?
Result: lowest
